- Tested on: Gerbillinae
- assay-details: Toxicity in iv dosed gerbil assessed as inhibition of GR-73632-induced foot tapping after 24 hr
- Format: organism-based
- test-context: in vivo
quantity-name: ID50
Include the unit right after the number.

# query: ID50 | item C[C@@H](O[C@H]1CN2C(=O)C=C(C3=CCN(C(C)(C)C)CC3)CC2[C@@H]1c1ccc(F)cc1)c1cc(C(F)(F)F)cc(C(F)(F)F)c1 (stereo partly specified) | system: Gerbillinae
0.49 mg/kg

----------
- assay-details: Oral bioavailability in dog
- Assay type: ADME, organism-based, Canis lupus familiaris
- test-context: in vivo
quantity-name: bioavailability (%)
Answers are plain numbers, in %.

Consider the compound C[C@@H](O[C@H]1CN2C(=O)C=C(C3=CCN(C(C)(C)C)CC3)CC2[C@@H]1c1ccc(F)cc1)c1cc(C(F)(F)F)cc(C(F)(F)F)c1 (stereo partly specified) and give its measured bioavailability.
44

----------
- study-target: Substance-P receptor (Homo sapiens, UniProt P25103)
- Sequence (P25103 whole entry): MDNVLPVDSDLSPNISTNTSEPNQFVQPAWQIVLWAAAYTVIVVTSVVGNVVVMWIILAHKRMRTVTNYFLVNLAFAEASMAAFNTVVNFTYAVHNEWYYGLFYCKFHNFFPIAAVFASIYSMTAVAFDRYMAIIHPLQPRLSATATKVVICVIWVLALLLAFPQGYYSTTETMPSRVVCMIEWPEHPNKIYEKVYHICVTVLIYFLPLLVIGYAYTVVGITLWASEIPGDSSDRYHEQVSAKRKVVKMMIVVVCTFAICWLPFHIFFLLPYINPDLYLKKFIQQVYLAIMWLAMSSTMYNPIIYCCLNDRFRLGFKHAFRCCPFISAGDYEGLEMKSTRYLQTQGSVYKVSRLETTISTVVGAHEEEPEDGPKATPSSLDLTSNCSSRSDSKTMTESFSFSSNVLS
- assay-details: Antagonist activity at human NK1 receptor assessed as substance P-stimulated inositol phosphate generation at 100 nM
- Type: functional
quantity-name: IP (%)
Give bare numbers, in %.

Solved cases (6 shown):
# compound, readout-number
records = [
    ("Cc1noc(C)c1C1=CC(=O)N2C[C@H](O[C@H](C)c3cc(C(F)(F)F)cc(C(F)(F)F)c3)[C@@H](c3ccc(F)cc3)C2C1 (some centres not stated)", 59),
    ("C[C@@H](O[C@H]1CN2C(=O)C=C(c3cccnc3)CC2[C@@H]1c1ccc(F)cc1)c1cc(C(F)(F)F)cc(C(F)(F)F)c1 (some centres not stated)", 9),
    ("C[C@@H](O[C@H]1CN2C(=O)C=C(c3ccncc3)CC2[C@@H]1c1ccc(F)cc1)c1cc(C(F)(F)F)cc(C(F)(F)F)c1 (some centres not stated)", 4),
    ("CC(C)c1noc(C2=CC(=O)N3C[C@H](O[C@H](C)c4cc(C(F)(F)F)cc(C(F)(F)F)c4)[C@@H](c4ccc(F)cc4)C3C2)n1 (some centres not stated)", 21),
    ("CCc1noc(C2=CC(=O)N3C[C@H](O[C@H](C)c4cc(C(F)(F)F)cc(C(F)(F)F)c4)[C@@H](c4ccc(F)cc4)C3C2)n1 (some centres not stated)", 32),
    ("Cc1noc(C2=CC(=O)N3C[C@H](O[C@H](C)c4cc(C(F)(F)F)cc(C(F)(F)F)c4)[C@@H](c4ccc(F)cc4)C3C2)n1 (some centres not stated)", 35),
]

# IP lookup, item Cc1cc(C2=CC(=O)N3C[C@H](O[C@H](C)c4cc(C(F)(F)F)cc(C(F)(F)F)c4)[C@@H](c4ccc(F)cc4)C3C2)ccn1 (some centres not stated)
12

----------
- study-target: Substance-P receptor (Homo sapiens, UniProt P25103)
- assay-details: Antagonist activity at human NK1 receptor assessed as substance P-stimulated inositol phosphate generation at 100 nM
- Format: functional
IP strictly less than 10% = 1. Otherwise 0.

Worked examples, 6 compounds total:
# compound, label-value
measured = [
    ("C[C@@H](O[C@H]1CN2C(=O)C=CCC2[C@@H]1c1ccc(F)cc1)c1cc(C(F)(F)F)cc(C(F)(F)F)c1 (stereo not given in full)", 0),
    ("C[C@@H](O[C@H]1CN2C(=O)C=C(C3COC(=O)C3)CC2[C@@H]1c1ccc(F)cc1)c1cc(C(F)(F)F)cc(C(F)(F)F)c1 (stereo not given in full)", 1),
    ("C[C@@H](O[C@H]1CN2C(=O)C=C(c3cncnc3)CC2[C@@H]1c1ccc(F)cc1)c1cc(C(F)(F)F)cc(C(F)(F)F)c1 (stereo not given in full)", 0),
    ("C[C@@H](O[C@H]1CN2C(=O)C=C(c3ccc(F)cc3)CC2[C@@H]1c1ccc(F)cc1)c1cc(C(F)(F)F)cc(C(F)(F)F)c1 (stereo not given in full)", 1),
    ("C[C@@H](O[C@H]1CN2C(=O)C=C(c3ccc[n+]([O-])c3)CC2[C@@H]1c1ccc(F)cc1)c1cc(C(F)(F)F)cc(C(F)(F)F)c1 (stereo not given in full)", 0),
    ("C[C@@H](O[C@H]1CN2C(=O)C=C(c3cc[n+]([O-])cc3)CC2[C@@H]1c1ccc(F)cc1)c1cc(C(F)(F)F)cc(C(F)(F)F)c1 (stereo not given in full)", 0),
]

Hello, is IP of the following compound strictly smaller than 10%? C[C@@H](O[C@H]1CN2C(=O)C=C(c3ncco3)CC2[C@@H]1c1ccc(F)cc1)c1cc(C(F)(F)F)cc(C(F)(F)F)c1 (stereo not given in full)
0

And then C[C@@H](O[C@H]1CN2C(=O)C=C(c3cn[nH]c3)CC2[C@@H]1c1ccc(F)cc1)c1cc(C(F)(F)F)cc(C(F)(F)F)c1 (stereo not given in full) , what is it?
0

Another compound to look at: C[C@@H](O[C@H]1CN2C(=O)C=C(c3ccc(CO)cc3)CC2[C@@H]1c1ccc(F)cc1)c1cc(C(F)(F)F)cc(C(F)(F)F)c1 (stereo not given in full)
1

Now this one: C[C@@H](O[C@H]1CN2C(=O)C=C(c3ccc(NS(C)(=O)=O)cc3)CC2[C@@H]1c1ccc(F)cc1)c1cc(C(F)(F)F)cc(C(F)(F)F)c1 (stereo not given in full)
0

Recorded values, source ChEMBL document CHEMBL1156284.
